- testSystem: Myc proto-oncogene protein (Homo sapiens)
- assayDetails: ATG_Myc_CIS: Attagene CIS-FACTORIAL HepG2 Assay for human Myelocytomatosis (Myc) Proto-Oncogene Transcription Factor (AID 2282990)
- assaySetup: HepG2, Attagene cis-reporter transcription factor activity; actives raise or lower the signal
Calls of active or inactive are those of the source. The calls were made as follows: active = hit-call score of the fitted dose curve at least 0.9, where 1 is the maximum; inactive = score below 0.9.
quantity: outcome

- COCCOc1cc2cc(C(=O)NC3CCN(C(C)C)CC3)n(CC(=O)Nc3ccc(Cl)cn3)c2cn1: inactive
- O=C1CCCCCN1: inactive
- C=CC(=C)CCC=C(C)C: inactive
- O=C(O)CC(O)C(=O)O (centres undefined): inactive

* * *

- assayDetails: ACEA_AR_antagonist_AUC_viability: ACEA Biosciences xCELLigence Real-Time Cell Analysis on Androgen Receptor Antagonism for Viability (AID 2283776);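 also: 22Rv1 human prostate cancer cells growing on impedance electrode plates; area under impedance growth curve at 80 h after dosing as viability; hits lower the growth signal relative to DMSO meaning cytotoxicity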
Results filed as inconclusive are left out. The source made the active and inactive calls. Rule for the calls: active = hit-call score of the fitted dose curve at least 0.9, where 1 is the maximum; inconclusive = response in the unintended direction; inactive = score below 0.9.
quantity: AC50

- Cc1ccc(S(=O)(=O)O)cc1C: inactive
- CN(C)c1ccc(Cc2ccc(N(C)C)cc2)cc1: 50 µM (active)
- CC[C@H]1CC[C@H](NCc2cc3c(cc2OC)[C@H]2C[C@H]2C(=O)N3C)[C@H](c2ccccc2)N1: 18.2 µM (active)
- CC(C)CCO: inactive
- Cc1[nH]cnc1C[C@H]1CCc2c(C)c3ccccc3n2C1=O: 50.1 µM (active)
- CCOC(=O)c1ccc(C2CCC(NC[C@H](O)COc3ccc(O)c(NS(C)(=O)=O)c3)CC2)cc1 (some centres not stated): 24.4 µM (active)
- Fc1ccccc1[C@@H](F)COC1CCC(Nc2ncnc3[nH]ncc23)CC1 (some centres not stated): 50 µM (active)
- COC(=O)c1c(Cl)c(Cl)c(C(=O)OC)c(Cl)c1Cl: 50 µM (active)
- CC(=O)c1ccc2c(c1)[C@H](NC(=O)c1ccc(F)cc1)[C@@H](O)C(C)(C)O2: inactive
- CC(=O)OC[C@H]1O[C@@](COC(C)=O)(O[C@H]2O[C@H](COC(C)=O)[C@@H](OC(C)=O)[C@H](OC(C)=O)[C@H]2OC(C)=O)[C@@H](OC(C)=O)[C@@H]1OC(C)=O: inactive
- COc1cccc(-c2ccc(/C=C\CN3CCCCCC3)cc2Cl)c1: 45.2 µM (active)
- O=c1[nH]c2ccc(S(=O)CCN3CCC(Cc4ccc(F)cc4)CC3)cc2o1 (configuration not stated): inactive
- C1=CCCC=CCCC=CCC1: inactive
- Cc1c(-c2cccnc2)c2ccccc2n1CCCCC(=O)O: 22.8 µM (active)
- COC(=O)CC(=O)OC: inactive
- CCn1nc(Cc2ccccc2)cc1C1CCN(C[C@H]2C[C@H](N(C)[C@@H](C(=O)O)C(C)C)C[C@@H]2c2cccc(F)c2)CC1: 45 µM (active)
- Oc1ccc2c(c1)-c1ccccc1C2: 41.8 µM (active)

* * *

- assayDetails: APR_HepG2_NuclearSize_72hr: Apredica 72-hour HepG2 Assay for Nuclear Size (AID 2282925)
- assaySetup: high-content imaging, actives raise or lower the signal
Calls of active or inactive are those of the source. The calls were made as follows: active = hit-call score of the fitted dose curve at least 0.9, where 1 is the maximum; inactive = score below 0.9.
Outcome codes: yes (1) = active, no (0) = inactive

- COc1cccc(-c2ccc(/C=C\CN3CCCCCC3)cc2Cl)c1: yes (1)
- COCCOCCOCCOC: no (0)
- C=CCCCCCCCCC(=O)O: no (0)
- CC(C)=CCC/C(C)=C/CO: no (0)
- CCOc1cccc(-n2cc(C(=O)N3CCN(c4cc(C(=O)O)c5ccccc5c4)CC3)nc2-c2ccc(C)cc2)c1: no (0)
- CC(C)=CCC/C(C)=C\CO: no (0)
- CCOCCO: no (0)
- CCCC(=O)OCC: no (0)
